src = paper PMC8287928

target: SARS-CoV-2 spike S1 subunit (SARS-CoV-2 (wild type), UniProt P0DTC2 16-685); details: protein: commercial; tags: His
result-type: Kd (nM)
Numbers only here, please. The scale is nM.

Measured Kd, ACGGGTTTGGCGTCGGGCCTGGCGGGGGGATAGTGCGGT (structured_DNA) [MSA5-T2] : 10.1

Measured Kd, TCCGGTTAATTTATGCTCTACCCGTCCACCTACCGGA (structured_DNA) [MSA1-T3] : 3.1

Measured Kd, MSA8 (structured_DNA) DNA: TTACGTCAAGGTGTCACTCCATGTGGGTGGGGGTCATTCTTCAGTGTCGGGAGGGGGTGGAAGCATCTCTTTGGCGTG : 23
